Target: 5-hydroxytryptamine receptor 1A (Homo sapiens)
Sequence (P08908 whole entry): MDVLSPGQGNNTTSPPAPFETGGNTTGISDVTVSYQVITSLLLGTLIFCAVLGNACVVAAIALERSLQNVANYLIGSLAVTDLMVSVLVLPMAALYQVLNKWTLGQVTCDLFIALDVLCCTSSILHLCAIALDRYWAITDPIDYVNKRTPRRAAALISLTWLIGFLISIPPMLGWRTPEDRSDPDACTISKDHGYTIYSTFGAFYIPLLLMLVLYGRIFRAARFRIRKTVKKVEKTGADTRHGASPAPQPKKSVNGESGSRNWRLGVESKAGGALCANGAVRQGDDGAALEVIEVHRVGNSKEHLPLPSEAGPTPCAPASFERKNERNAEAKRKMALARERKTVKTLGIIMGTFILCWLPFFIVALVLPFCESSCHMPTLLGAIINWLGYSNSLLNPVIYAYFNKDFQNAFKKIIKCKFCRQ
Assay: Stimulation of [35S]- GIPyS binding to cloned human 5-hydroxytryptamine 1A receptor stably expressed in HeLa cells
Assay type: cell-based
Exercise: for every item that follows, state its recorded log10 EC50.
Lab note - EC50 converted to log10 from values in nM.

Before answering, review these 5 worked examples.
>  <Compound>
OC(COCc1ccccc1)CN1CCC2(CC1)OCc1c2ccc2ccccc12 (centres undefined)

>  <Measure>
log10 EC50

>  <Endpoint Result>
1.49

$$$$
>  <Compound>
CCc1cccc(OC[C@@H](O)CN2CCC3(CC2)OCc2c3ccc3ccccc23)c1

>  <Measure>
log10 EC50

>  <Endpoint Result>
0.52

$$$$
>  <Compound>
O[C@H](COc1ccccc1)CN1CCC2(CC1)OCc1c2ccc2ccccc12

>  <Measure>
log10 EC50

>  <Endpoint Result>
0.08

$$$$
>  <Compound>
O[C@H](COc1ccccc1F)CN1CCC2(CC1)OCc1c2ccc2ccccc12

>  <Measure>
log10 EC50

>  <Endpoint Result>
0.04

$$$$
>  <Compound>
OC(CCc1ccccc1)CN1CCC2(CC1)OCc1c2ccc2ccccc12 (centres undefined)

>  <Measure>
log10 EC50

>  <Endpoint Result>
1.57

$$$$

Dear colleague, could you please provide log10 EC50 for the compounds listed below?
1. O=C1CCc2c(F)ccc(OCC(O)CN3CCC4(CC3)OCc3c4ccc4ccccc34)c21 (centres undefined)
2. O[C@@H](COc1ccccc1F)CN1CCC2(CC1)OCc1c2ccc2ccccc12

Marked response:
1: 0.54; 2: 1.32

# credit: ChEMBL document CHEMBL1131886
